# System: HDV
# Method summary: HDV infection of HepG2-NTCP cells, viral RNA by RT-qPCR
# Assay type: cell-based
# Protocol conditions: 288 h, 800 GE/cell, viral RNA at day 12 post infection, 50% reduction relative to DMSO controls, read-out: Cellular EC50
Observation type: EC50

Ask: May I ask what EC50 has been recorded for `CN1[C@H](C2CCC2)CN(c2ccccc2)c2cc3c(cc2S1(=O)=O)-c1cc(C(=O)O)ccc1CO3` ?
Reply: < 100 nM

Reference source for all entries: patent US20240325409A1
